Reported ED50 values follow for various compounds
Tested on: Cavia porcellus
protocol.summary: Effective dose against LTD4-induced bronchoconstriction in guinea pig after peroral administration
Type: functional
condition.notes: po
Respond with the bare value in µmol/kg.

Solved entries:
CCC(CC)CNC(=O)c1ccc2c(c1)c(Cc1ccc(C(=O)NS(=O)(=O)c3ccccc3C)cc1OC)cn2CC 5.3
CCC(CC)CNC(=O)c1ccc2c(c1)c(Cc1ccc(C(=O)NS(=O)(=O)c3ccccc3C)cc1OC)cn2C 14.7
CCCn1cc(Cc2ccc(C(=O)NS(=O)(=O)c3ccccc3C)cc2OC)c2cc(C(=O)NCC(C)C)ccc21 31
CCCn1cc(Cc2ccc(C(=O)NS(=O)(=O)c3ccccc3C)cc2OC)c2cc(C(=O)NCC3CCCC3)ccc21 4.8

## Input Request the reported ED50 associated with "CCC(CC)CNC(=O)c1ccc2c(c1)c(Cc1ccc(C(=O)NS(=O)(=O)c3ccccc3Br)cc1OC)cn2C"
## Output 21.4

## Input Dear colleague, I am looking for the recorded ED50 of the following compound: "COc1cc(C(=O)NS(=O)(=O)c2ccccc2C)ccc1Cc1cn(C)c2ccc(NC(=O)CC3CCCC3)cc12"
## Output 0.41

## Input Which ED50 is listed for "C=CCn1cc(Cc2ccc(C(=O)NS(=O)(=O)c3ccccc3C)cc2OC)c2cc(C(=O)NCC3CCCC3)ccc21" ?
## Output 9.9

---

measured.target: Cysteinyl leukotriene receptor 1 (Cavia porcellus) (UniProt Q2NNR5)
Sequence (whole entry): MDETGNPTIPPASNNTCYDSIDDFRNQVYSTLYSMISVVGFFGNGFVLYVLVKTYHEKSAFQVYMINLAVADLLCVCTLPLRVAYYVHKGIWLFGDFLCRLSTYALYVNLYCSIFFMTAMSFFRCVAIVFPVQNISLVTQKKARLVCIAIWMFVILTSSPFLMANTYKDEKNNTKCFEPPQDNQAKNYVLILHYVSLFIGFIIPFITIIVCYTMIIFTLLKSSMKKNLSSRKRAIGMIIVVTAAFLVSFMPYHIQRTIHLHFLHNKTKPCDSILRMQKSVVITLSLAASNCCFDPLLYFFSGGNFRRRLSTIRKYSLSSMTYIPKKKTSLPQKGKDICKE
protocol.summary: Binding affinity against leukotriene receptor (LTE4) from guinea pig tracheal spirals
Assay type: tissue-based
property.name: pKB
Lab note: record just the number, no unit beside it.

Please review the following examples before continuing.
molecule	pKB
CCC(CC)CNC(=O)c1ccc2c(c1)c(Cc1ccc(C(=O)NS(=O)(=O)c3ccccc3C)cc1OC)cn2C(C)C	8.8
CCC(CC)CNC(=O)c1ccc2c(c1)c(Cc1ccc(C(=O)NS(=O)(=O)c3ccccc3C)cc1OC)cn2Cc1ccccc1	8.3

## Input Entry CCCC(C)CNC(=O)c1ccc2c(c1)c(Cc1ccc(C(=O)NS(=O)(=O)c3ccccc3C)cc1OC)cn2C (configuration not stated) : reported pKB = ?
## Output 8.5

## Input May I ask what pKB has been recorded for "CCC(CC)CNC(=O)c1ccc2c(c1)c(Cc1ccc(C(=O)NS(=O)(=O)c3ccccc3Br)cc1OC)cn2C" ?
## Output 9.1

---

Test system: Cavia porcellus
protocol.summary: Effective dose against LTD4-induced bronchoconstriction in guinea pig after peroral administration
Type: functional
condition.notes: po
property.name: ED50 (µmol/kg)
Answer format: numeric, µmol/kg implied, no suffix.

compound	reading.unit	ED50
CCC(CC)CNC(=O)c1ccc2c(c1)c(Cc1ccc(C(=O)NS(=O)(=O)c3ccccc3C)cc1OC)cn2C(C)C	µmol/kg	4.7

## Input ED50 for CCC(C)CNC(=O)c1ccc2c(c1)c(Cc1ccc(C(=O)NS(=O)(=O)c3ccccc3C)cc1OC)cn2C (stereo unspecified) ?
## Output 20

## Input Quick check: ED50 of CCCCC(CC)CNC(=O)c1ccc2c(c1)c(Cc1ccc(C(=O)NS(=O)(=O)c3ccccc3C)cc1OC)cn2C (stereo unspecified) ?
## Output 8.06

## Input Report ED50 for "COc1cc(C(=O)NS(=O)(=O)c2ccccc2C)ccc1Cn1cc(C)c2ccc(NC(=O)CC3CCCC3)cc21" please.
## Output 0.3

## Input Would you kindly share the measured ED50 for "CCCn1cc(Cc2ccc(C(=O)NS(=O)(=O)c3ccccc3C)cc2OC)c2cc(C(=O)NCC(CC)CC)ccc21" ?
## Output 5.6
